experimental-system: Histone deacetylase 1 (Homo sapiens)
Sequence (Q13547 whole entry): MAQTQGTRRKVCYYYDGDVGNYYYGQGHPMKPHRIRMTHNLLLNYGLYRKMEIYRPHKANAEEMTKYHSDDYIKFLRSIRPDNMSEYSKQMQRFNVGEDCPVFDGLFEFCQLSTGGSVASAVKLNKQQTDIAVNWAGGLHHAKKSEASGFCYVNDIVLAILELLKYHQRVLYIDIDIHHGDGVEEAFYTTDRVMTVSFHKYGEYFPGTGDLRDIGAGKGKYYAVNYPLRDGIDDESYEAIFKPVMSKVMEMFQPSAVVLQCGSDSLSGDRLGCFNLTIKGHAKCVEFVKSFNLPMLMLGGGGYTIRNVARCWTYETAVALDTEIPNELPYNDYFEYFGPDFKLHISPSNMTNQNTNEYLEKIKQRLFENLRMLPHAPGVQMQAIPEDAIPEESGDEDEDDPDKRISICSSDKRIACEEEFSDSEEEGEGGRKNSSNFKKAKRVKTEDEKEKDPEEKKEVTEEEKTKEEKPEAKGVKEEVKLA
test-protocol: Inhibition of human KDAC1 at 30 uM using substrate A after 60 mins by fluorescence assay relative to control
observed-property: inhibition (%)
Return type: number; implicit unit %.

compound_string=Cc1c(C)c(S(=O)(=O)NC(=N)NCCC[C@@H]2N=C(c3ccccc3)c3ccccc3NC2=O)c(C)c2c1OC(C)(C)C2 result_unit=% recorded_value=8
compound_string=COC(=O)CCCCN1C(=O)[C@H]([C@@H](C)OCc2ccccc2)N=C(c2ccccc2)c2ccccc21 result_unit=% recorded_value=0.64
compound_string=O=C(CCCCN1C(=O)[C@H](Cc2cc3ccccc3[nH]2)N=C(c2ccccc2)c2ccccc21)NO result_unit=% recorded_value=60
compound_string=CC(C)(C)OC(=O)n1c(C[C@@H]2N=C(c3ccccc3)c3ccccc3N(CCCCC(=O)O)C2=O)cc2ccccc21 result_unit=% recorded_value=11.3
compound_string=CC(C)(C)SC[C@H]1N=C(c2ccccc2)c2ccccc2N(CCCCC(=O)O)C1=O result_unit=% recorded_value=12.1
compound_string=NC(=O)C[C@@H]1N=C(c2ccccc2)c2ccccc2N(CCCCC(=O)NO)C1=O result_unit=% recorded_value=57.6
compound_string=O=C(O)CCCCN1C(=O)[C@H](CCC(=O)O)N=C(c2ccccc2)c2ccccc21 result_unit=% recorded_value=13.6

The recorded inhibition for entry `O=C(CCCCN1C(=O)[C@H](Cc2cnc[nH]2)N=C(c2ccccc2)c2ccccc21)NO` equals 61.4
